target: Activated CDC42 kinase 1 (Homo sapiens, UniProt Q07912); experiment: Inhibition of ACK1 (unknown origin)
Sequence (Q07912 whole entry): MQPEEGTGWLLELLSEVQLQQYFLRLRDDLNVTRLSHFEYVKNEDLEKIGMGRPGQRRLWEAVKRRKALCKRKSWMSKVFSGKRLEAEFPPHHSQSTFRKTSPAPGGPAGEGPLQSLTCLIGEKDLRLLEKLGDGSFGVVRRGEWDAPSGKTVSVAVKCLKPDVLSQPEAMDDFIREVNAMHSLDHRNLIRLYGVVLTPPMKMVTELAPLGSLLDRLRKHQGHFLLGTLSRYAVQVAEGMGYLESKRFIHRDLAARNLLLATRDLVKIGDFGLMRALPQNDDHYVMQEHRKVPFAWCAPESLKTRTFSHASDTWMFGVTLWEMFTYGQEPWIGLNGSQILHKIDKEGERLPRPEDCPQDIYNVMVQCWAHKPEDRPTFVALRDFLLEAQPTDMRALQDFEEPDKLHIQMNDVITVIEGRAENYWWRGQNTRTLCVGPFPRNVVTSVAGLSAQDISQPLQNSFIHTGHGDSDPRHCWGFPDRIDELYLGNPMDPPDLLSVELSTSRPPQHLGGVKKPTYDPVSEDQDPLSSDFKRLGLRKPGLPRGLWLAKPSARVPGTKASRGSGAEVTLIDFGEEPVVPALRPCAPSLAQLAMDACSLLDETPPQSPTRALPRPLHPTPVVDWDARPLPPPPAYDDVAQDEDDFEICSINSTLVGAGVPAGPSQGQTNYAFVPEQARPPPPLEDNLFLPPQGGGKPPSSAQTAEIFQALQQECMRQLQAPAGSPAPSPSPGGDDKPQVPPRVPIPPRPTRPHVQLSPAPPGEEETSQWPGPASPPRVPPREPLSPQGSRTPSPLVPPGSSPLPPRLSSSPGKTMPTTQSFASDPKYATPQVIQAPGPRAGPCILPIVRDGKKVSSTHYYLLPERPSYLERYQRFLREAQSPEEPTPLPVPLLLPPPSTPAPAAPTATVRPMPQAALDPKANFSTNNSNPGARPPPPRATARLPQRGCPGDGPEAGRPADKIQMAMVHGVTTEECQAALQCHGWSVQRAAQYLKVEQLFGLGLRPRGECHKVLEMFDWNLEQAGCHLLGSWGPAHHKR
measure: pIC50
pIC50 here is simply -log10 of the concentration when that concentration is written in mol/L.

Noted for `O=C(Nc1ccc(Nc2ccnc3[nH]c(=O)c4ccccc4c23)cc1)c1ccccc1` : its pIC50 reads 6.83

----------
target: Aurora kinase B (Homo sapiens, UniProt Q96GD4); experiment: Inhibition of aurora-B (unknown origin)
Sequence (Q96GD4 whole entry): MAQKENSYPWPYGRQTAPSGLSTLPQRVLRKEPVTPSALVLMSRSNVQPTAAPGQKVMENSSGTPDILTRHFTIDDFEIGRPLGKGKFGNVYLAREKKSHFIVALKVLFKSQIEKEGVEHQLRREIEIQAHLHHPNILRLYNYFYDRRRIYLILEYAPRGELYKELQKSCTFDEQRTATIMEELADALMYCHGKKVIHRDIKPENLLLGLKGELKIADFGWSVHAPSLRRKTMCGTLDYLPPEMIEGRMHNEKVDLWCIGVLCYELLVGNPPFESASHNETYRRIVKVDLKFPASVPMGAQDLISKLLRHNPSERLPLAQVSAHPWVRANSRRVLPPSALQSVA
pIC50: −log10 of the molar value.
Record rule met whenever pIC50 is at 9 or higher; record rule not met when lower.

>  <molSmiles>
O=C(Nc1ncc(Nc2ccnc3[nH]c(=O)c4ccccc4c23)cn1)c1ccccc1

>  <labelValue>
rule not met

$$$$

Query: Answer whether pIC50 of `Cc1ccc(C(=O)Nc2ccc(Nc3ccnc4[nH]c(=O)c5ccccc5c34)cc2)cc1` is greater than or equal to 9.
Response: rule not met

Query: Answer whether pIC50 of `O=C(Nc1ccc(Nc2ccnc3[nH]c(=O)c4ccccc4c23)cc1)c1cccc(F)c1F` is greater than or equal to 9.
Response: rule met

Query: Answer whether pIC50 of `O=C(Nc1ccc(Nc2ccnc3[nH]c(=O)c4ccccc4c23)cc1)c1ccccc1F` is greater than or equal to 9.
Response: rule not met
